# target.entity: Serine/threonine-protein kinase PAK 3 (Homo sapiens);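 note: reported percentage is a mean inhibition value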
# condition.parameters: at 1 µM
quantity.name: inhibition (%)
Form entry: value (%) — number only.

I have this molecule here, `Cc1nnc(-c2ccc(C)c(-c3ccc(C(=O)Nc4cccc(C#N)c4)cc3)c2)o1` , and I need its recorded inhibition.
2.15

I have this molecule here, `[O-][S+]1CCN(Cc2ccc(-c3ccc4ncnc(Nc5ccc(OCc6ccccc6)c(F)c5)c4c3)o2)CC1` , and I need its recorded inhibition.
1.96

I have this molecule here, `Cc1nn(C)c2cc(N(C)c3ccnc(Nc4cccc(S(N)(=O)=O)c4)n3)ccc12` , and I need its recorded inhibition.
2.95

I have this molecule here, `COc1ccccc1Nc1ncc(-c2ccccc2)o1` , and I need its recorded inhibition.
6.38

I have this molecule here, `NC(=O)c1ccc(-c2nc(-c3ccccn3)c(-c3ccc4c(c3)OCO4)[nH]2)cc1` , and I need its recorded inhibition.
2.97

I have this molecule here, `O=C1Nc2ccc(C(=O)c3ccco3)cc2C1=Cc1cc(Cl)c(O)c(Cl)c1` , and I need its recorded inhibition.
3.42

I have this molecule here, `CN(C)c1cc2c(Nc3ccc4nc(Cc5ccccc5)[nH]c4c3)ncnc2cn1` , and I need its recorded inhibition.
7.25

I have this molecule here, `CN1CCC(C(=O)Nc2n[nH]c3nnc(-c4ccccc4)cc23)CC1` , and I need its recorded inhibition.
6.46

I have this molecule here, `Fc1cccc(COc2ccc(Nc3ncnc4cc(-c5ccc[nH]5)sc34)cc2Cl)c1` , and I need its recorded inhibition.
1.96

I have this molecule here, `COc1cc2ncn(-c3cc(O[C@@H](C)c4ccccc4Cl)c(C(N)=O)s3)c2cc1OC` , and I need its recorded inhibition.
5.27

I have this molecule here, `CCn1c(-c2nonc2N)nc2c(C#CC(C)(C)O)nc(OC[C@@H](N)c3ccccc3)cc21` , and I need its recorded inhibition.
0.72

I have this molecule here, `Fc1cccc(COc2ccc(Nc3ncnc4sc(-c5cccs5)cc34)cc2Cl)c1` , and I need its recorded inhibition.
2.7

I have this molecule here, `COC(=O)Nc1nc2cc(Oc3ccc(NC(=O)Nc4cccc(C(=O)O)c4)cc3)ccc2[nH]1` , and I need its recorded inhibition.
0.98

I have this molecule here, `Nc1nc(-c2ccccn2)c(-c2ccc3ncccc3n2)s1` , and I need its recorded inhibition.
3.63

I have this molecule here, `CNC(=O)c1cncc(/C=C/c2c(Cl)cccc2Cl)c1` , and I need its recorded inhibition.
5.48

Recorded values, source ChEMBL document CHEMBL1961873.
